Just for reference, patent US12098145B2 is where these values come from.

Target Or System: TRPML1 (Homo sapiens, UniProt Q9GZU1)
Construct: expressed in transfected cells; host or cells: HEK T-REx cells stably expressing GCaMP6f and TRPML1
Sequence (Q9GZU1 whole entry): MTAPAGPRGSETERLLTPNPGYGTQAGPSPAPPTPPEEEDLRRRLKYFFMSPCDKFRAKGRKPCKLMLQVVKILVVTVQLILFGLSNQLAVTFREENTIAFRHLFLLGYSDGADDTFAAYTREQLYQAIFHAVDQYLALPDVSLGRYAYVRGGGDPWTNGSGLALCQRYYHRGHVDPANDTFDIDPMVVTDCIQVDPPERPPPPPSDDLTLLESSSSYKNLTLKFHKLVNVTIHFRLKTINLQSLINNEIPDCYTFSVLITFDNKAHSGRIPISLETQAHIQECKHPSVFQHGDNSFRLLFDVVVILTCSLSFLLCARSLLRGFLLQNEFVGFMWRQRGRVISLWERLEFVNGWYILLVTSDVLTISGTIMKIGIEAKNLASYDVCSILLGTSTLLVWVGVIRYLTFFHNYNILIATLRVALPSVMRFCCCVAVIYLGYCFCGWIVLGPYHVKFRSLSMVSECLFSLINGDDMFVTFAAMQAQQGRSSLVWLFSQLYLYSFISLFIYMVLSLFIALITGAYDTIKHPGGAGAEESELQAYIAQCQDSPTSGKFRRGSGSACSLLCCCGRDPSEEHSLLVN
Experiment Description: Cellular TRPML1 assay (FLIPR, GCaMP6f calcium read-out)
Format: cell-based
Cond: HEKT-REx/GCaMP6f/TRPML1 cells, FLIPR TETRA, kinetic response over 300 seconds; read-out: TRPML1 FLIPR pEC50 (converted)
This section presents compounds with their documented EC50 values.

In the examples that follow, each entry is paired with its recorded EC50.
O=C(Nc1cc(F)c(N2CCC3CCCC32)c(F)c1)c1nc(N2CCCC2)oc1CC(F)(F)F (stereo not shown) [Example 214]: 0.01 to 1 µM
COCc1oc(N2CCCC2C)nc1C(=O)Nc1ccc(N2CCCCC2)c(F)c1 (stereo not shown) [Example 103]: 10 to 100 µM
O=C(Nc1ccc(O[C@@H]2C[C@@H]3C[C@@H]3C2)c(F)c1)c1nc(N2CC3(CCOCC3)C2)oc1CC(F)(F)F [Example 171]: 0.01 to 1 µM

Please look at the following compound next.
INPUT: // returns reported EC50 for input COCc1oc(N2CC(C)(OC)C2)nc1C(=O)Nc1cc(C)c(O[C@@H]2C[C@@H]3C[C@@H]3C2)c(F)c1 [Example 294]
OUTPUT: 0.01 to 1 µM

* * *

Target Or System: TRPML1 (Homo sapiens)
Construct: expressed in transfected cells; host or cells: HEK T-REx cells stably expressing GCaMP6f and TRPML1
Experiment Description: Cellular TRPML1 assay (FLIPR, GCaMP6f calcium read-out)
Format: cell-based
Cond: HEKT-REx/GCaMP6f/TRPML1 cells, FLIPR TETRA, kinetic response over 300 seconds; read-out: TRPML1 FLIPR pEC50 (converted)
Reported Property: EC50

In the examples that follow, each entry is paired with its recorded EC50.
O=C(Nc1cc(F)c(OC2CC3CC(C3)C2)c(F)c1)c1nc(N2CCCC2)oc1CCF (stereo not drawn): 10 to 1000 nM
CC1(C)CCCN(c2c(F)cc(NC(=O)c3nc(N4CCCC4)oc3CC(F)(F)F)cc2F)C1: 10 to 1000 nM
CCC1(CC)CN(c2nc(C(=O)Nc3cc(F)c(OC4CC5CC(C5)C4)c(F)c3)c(CC(F)(F)F)o2)C1 (stereo not drawn): 10 to 1000 nM
O=C(Nc1ccc(N2CCCCC2)c(F)c1)c1nc(N2CCC3(COC3)C2)oc1CC(F)(F)F: 10 to 1000 nM
CCc1oc(N2CC(CC)(OC)C2)nc1C(=O)Nc1cc(F)c(O[C@@H]2C[C@@H]3C[C@@H]3C2)c(F)c1: 10 to 1000 nM
CCc1oc(N2CC(C)(OC)C2)nc1C(=O)Nc1cc(C)c(O[C@@H]2C[C@@H]3C[C@@H]3C2)c(F)c1: 10 to 1000 nM
CCC1(CC)CN(c2nc(C(=O)Nc3cc(F)c(O[C@@H]4C[C@@H]5C[C@@H]5C4)c(F)c3)c(CC(F)(F)F)o2)C1: 10 to 1000 nM
O=C(Nc1ccc(OC2CCCC2(F)F)c(F)c1)c1nc(N2CC3(CCOCC3)C2)oc1CC(F)(F)F (stereo not drawn): 1000 to 10000 nM
O=C(Nc1cc(F)c(O[C@@H]2C[C@@H]3C[C@@H]3C2)c(F)c1)c1nc(N2CCCC2)oc1CN1CCC1: 1000 to 10000 nM
Cc1oc(NC2CCCC23CCCO3)nc1C(=O)Nc1ccc(N2CCCCC2)c(F)c1 (stereo not drawn): 10000 to 100000 nM

INPUT: // returns reported EC50 for input O=C(Nc1cc(F)c(N2CCC3OCCC32)c(F)c1)c1nc(N2CCCC2)oc1CC(F)(F)F (stereo not drawn)
OUTPUT: 1000 to 10000 nM

INPUT: How about "CCC1(CC)CN(c2nc(C(=O)Nc3ccc(N4CCCCC4)c(F)c3)c(CC(F)(F)F)o2)C1" ?
OUTPUT: 10 to 1000 nM
